Tested on: Abutilon theophrasti
assay: Pre-emergence herbicidal activity, glasshouse pot test; also: key: 5=total damage to plant; 0=no damage to plant
Assay type: in vivo
protocol_conditions: pre-emergence spray, rate 1000 g/ha, evaluated after 13 days, scale 0-5
Values of ABUTH damage score, application pre-emergence greater than or equal to 4 map to True; values below map to False.

[ask] ABUTH damage score, application pre-emergence >= 4 for CCN(C)c1cc(N2C(=O)C(Cl)=C(C)C2O)ncn1 (centres unmarked) [CF16] ?
[reply] False

[ask] ABUTH damage score, application pre-emergence >= 4 for COC1=C(C)C(O)N(c2cc3c(cn2)CCCC3)C1=O (centres unmarked) [AI7] ?
[reply] False

[ask] ABUTH damage score, application pre-emergence >= 4 for COC1=C(OC)C(O)N(c2cc(C(F)(F)F)ncn2)C1=O (centres unmarked) [CK4] ?
[reply] True

[ask] ABUTH damage score, application pre-emergence >= 4 for CC1=C(Cl)C(=O)N(c2ccc(S(C)(=O)=O)cn2)C1O (centres unmarked) [AF54] ?
[reply] False

[ask] ABUTH damage score, application pre-emergence >= 4 for CC1=C(Cl)C(=O)N(c2cc(C(C)(C)C#N)ncn2)C1O (centres unmarked) [CF14] ?
[reply] True

[ask] ABUTH damage score, application pre-emergence >= 4 for CCC(C)(C)NC(=O)c1cnc(N2C(=O)C(OC)=C(C)C2O)cc1C (centres unmarked) [AI35] ?
[reply] True

[ask] ABUTH damage score, application pre-emergence >= 4 for COC1=C(C)C(O)N(c2cc3c(nn2)CCCC3)C1=O (centres unmarked) [BI3] ?
[reply] False

[ask] ABUTH damage score, application pre-emergence >= 4 for COc1ccc(N2C(=O)C(Cl)=C(C)C2O)nc1 (centres unmarked) [AF56] ?
[reply] False

[ask] ABUTH damage score, application pre-emergence >= 4 for COc1ccnc(N2C(=O)C(Cl)=C(C)C2O)c1 (centres unmarked) [AF44] ?
[reply] False

[ask] ABUTH damage score, application pre-emergence >= 4 for CC(=O)OC1C(C)=C(Cl)C(=O)N1c1cc(C(F)(F)F)ccn1 (centres unmarked) [AF10] ?
[reply] True

[ask] ABUTH damage score, application pre-emergence >= 4 for CCC1=C(Cl)C(=O)N(c2cc(C(F)(F)F)ccn2)C1O (centres unmarked) [AF84] ?
[reply] False

[ask] ABUTH damage score, application pre-emergence >= 4 for CC1=C(Cl)C(=O)N(c2cc(C(C)F)ccn2)C1O (centres unmarked) [AF40] ?
[reply] True

[ask] ABUTH damage score, application pre-emergence >= 4 for CCOC(=O)C(C)(C)c1cc(N2C(=O)C(Cl)=C(C)C2O)ncn1 (centres unmarked) [CF11] ?
[reply] True

[ask] ABUTH damage score, application pre-emergence >= 4 for COC1=C(C)C(O)N(c2cc(C(F)(F)F)c(OC)cn2)C1=O (centres unmarked) [AI15] ?
[reply] False

[ask] ABUTH damage score, application pre-emergence >= 4 for CC1=C(Cl)C(=O)N(c2cc(C(F)(F)F)cc(Cl)n2)C1O (centres unmarked) [AF37] ?
[reply] False
